Values were extracted from the CombiSolv-Exp solvation set (Vermeire and Green 2021).

# Test Name: solvent given as SMILES
# Condition Details: in CCCCCC
Measured Parameter: solvation free energy, 298 K (kcal/mol)
Answer with a number only, understood to be in kcal/mol.

Q) What value of measured solvation free energy, 298 K is listed for CCCC(C)C ?
A) -3.87

Q) Then CN(C)C(=O)Nc1ccc(Cl)cc1 ?
A) -9.81

Q) Then O=[N+]([O-])c1ccccc1 ?
A) -6.09

Q) Then c1cc2c3c(cccc3c1)CC2 ?
A) -8.86

Q) Then Oc1cccc(Cl)c1 ?
A) -6.52

Q) Then O=C=O ?
A) -0.48

Q) Then CCC[N+](=O)[O-] ?
A) -4.05

Q) Then CC(C)N ?
A) -2.78

Q) Then ON=C1CCCCC1 ?
A) -6.16

Q) Then CCCCCO ?
A) -4.62

----------
# Test Name: solvent given as SMILES
# Condition Details: in FC(F)(F)C(F)(F)C(F)(F)C(F)(F)C(F)(F)C(F)(F)F
Measured Parameter: solvation free energy, 298 K (kcal/mol)
Answer with a number only, understood to be in kcal/mol.

Q) What value of measured solvation free energy, 298 K is listed for Cc1ccccc1 ?
A) -3.08

Q) Then CCCC(C)C ?
A) -2.53

Q) Then CCCO ?
A) -1.74

Q) Then CC(C)CC(C)C ?
A) -2.85

Q) Then C1CCCCC1 ?
A) -2.71

----------
# Test Name: solvent given as SMILES
# Condition Details: in O=Cc1ccco1
For each record, check the reported solvation free energy, 298 K: if it is below -4 kcal/mol write Yes, else write No.

Q) Threshold test, solvation free energy, 298 K < -4 kcal/mol: C1CCCC1
A) No

Q) Then CCCCCCCCCCCCc1ccccc1 ?
A) Yes

Q) Then CCCCc1ccccc1 ?
A) Yes

Q) Then C1CCCCC1 ?
A) No

Q) Then Cc1ccccc1C ?
A) Yes

Q) Then C1CCCCCC1 ?
A) No

Q) Then C=CCCCCC ?
A) No

Q) Then Cc1ccccc1 ?
A) Yes

----------
# Test Name: solvent given as SMILES
# Condition Details: in c1ccc2c(c1)CCCC2
Provide the reported solvation free energy, 298 K of each item.
Answer with a number only, understood to be in kcal/mol.

Q) What value of measured solvation free energy, 298 K is listed for C1CCCCC1 ?
A) -4.1

Q) Then C1=CCCCC1 ?
A) -4.28

Q) Then C=CCCCCC ?
A) -4.37

Q) Then c1ccccc1 ?
A) -4.33

----------
# Test Name: solvent given as SMILES
# Condition Details: in CCO
Measured Parameter: solvation free energy, 298 K (kcal/mol)
Answer with a number only, understood to be in kcal/mol.

Q) What value of measured solvation free energy, 298 K is listed for CCCCCCCCCCCCCCCCCCCCCCCC ?
A) -13.4

Q) Then ClCc1ccccc1 ?
A) -6.22

Q) Then c1ccc2c(c1)-c1cccc3cccc-2c13 ?
A) -11.4

Q) Then CC(C)Cc1ccc(C(C)C(=O)O)cc1 (stereo not drawn) ?
A) -13.1

Q) Then CN(C)C(=O)Nc1ccc(Cl)cc1 ?
A) -13.4

Q) Then CCCCCCCCCCCCc1ccccc1 ?
A) -10

Q) Then C=C ?
A) -0.56

Q) Then CCBr ?
A) -3.03

Q) Then O=C(C(=O)c1ccccc1)c1ccccc1 ?
A) -11.1

Q) Then ClC(Cl)(Cl)Cl ?
A) -3.74

Q) Then COc1cc(Cc2cnc(N)nc2N)cc(OC)c1OC ?
A) -19.8

Q) Then O=c1cc(-c2ccc(O)c(O)c2)oc2cc(O)cc(O)c12 ?
A) -25.5

Q) Then II ?
A) -6.27

Q) Then O=C(O)c1cccc(Cl)c1 ?
A) -10.7

Q) Then CC(C)CC(C)C ?
A) -3.34

Q) Then Cc1ccccc1C(=O)O ?
A) -9.12

Q) Then COc1cc(C2c3cc4c(cc3C(O)C3COC(=O)C23)OCO4)cc(OC)c1OC (stereo not drawn) ?
A) -25.3

Q) Then FS(F)(F)(F)(F)F ?
A) 0.14
